experiment: Pharmacokinetics in plasma after single- and multiple-dose administration; format: in vivo, human; conditions: human, plasma, oral, 600 mg, Multiple-dose administration
readoutKind: Tmax (h)
API: value field is a number in h; no unit string.

Entry Cc1ccc(C(=O)Nc2ccc(CN3CCN(C)CC3)c(C(F)(F)F)c2)cc1C#Cc1nnc2ccccn12 : reported Tmax = ?
3.62

====

assay: Pharmacokinetics in plasma after single- and multiple-dose administration; assay type: in vivo, human; conditions: human, plasma, oral, 200 mg, Multiple-dose administration
readoutKind: Tmax (h)
API: value field is a number in h; no unit string.

Entry Cc1ccc(C(=O)Nc2ccc(CN3CCN(C)CC3)c(C(F)(F)F)c2)cc1C#Cc1nnc2ccccn12 : reported Tmax = ?
3.36

====

test: Pharmacokinetics in plasma after single- and multiple-dose administration; format: in vivo, human; conditions: human, plasma, oral, 50 mg, Single-dose administration
readoutKind: Cmax (ng/mL)
API: value field is a number in ng/mL; no unit string.

Entry Cc1ccc(C(=O)Nc2ccc(CN3CCN(C)CC3)c(C(F)(F)F)c2)cc1C#Cc1nnc2ccccn12 [vamotinib] : reported Cmax = ?
25.3

====

assay: Pharmacokinetics in plasma after single- and multiple-dose administration; type: in vivo, human; settings: human, plasma, oral, 400 mg, Multiple-dose administration
readoutKind: Cmax (ng/mL)
API: value field is a number in ng/mL; no unit string.

Entry Cc1ccc(C(=O)Nc2ccc(CN3CCN(C)CC3)c(C(F)(F)F)c2)cc1C#Cc1nnc2ccccn12 : reported Cmax = ?
177

====

test: Pharmacokinetics in plasma after single- and multiple-dose administration; type: in vivo, human; conditions: human, plasma, oral, 100 mg, Single-dose administration
readoutKind: Tmax (h)
API: value field is a number in h; no unit string.

Entry Cc1ccc(C(=O)Nc2ccc(CN3CCN(C)CC3)c(C(F)(F)F)c2)cc1C#Cc1nnc2ccccn12 : reported Tmax = ?
4.67

====

experiment: Pharmacokinetics in plasma after single- and multiple-dose administration; assay type: in vivo, human; details: human, plasma, oral, 300 mg, Multiple-dose administration
readoutKind: Tmax (h)
API: value field is a number in h; no unit string.

Entry Cc1ccc(C(=O)Nc2ccc(CN3CCN(C)CC3)c(C(F)(F)F)c2)cc1C#Cc1nnc2ccccn12 : reported Tmax = ?
4.52

====

Test: Pharmacokinetics in plasma after single- and multiple-dose administration
Format: in vivo, human
Conditions: human, plasma, oral, 300 mg, Single-dose administration, 300 mg; read-out: AUC0-t, Mean
Procedure: Blood samples were obtained to evaluate pharmacokinetics and pharmacodynamics (Tables S1, S1.1, S1.2). Data on phosphorylated CrkL protein (pCrkL) concentration were evaluated in samples from 4 subjects. Pharmacokinetic measurements were done on days 1 and 29–30 of treatment. […] PF-114 was determined in human plasma samples using validated analytical method. […] The PK concentration set (PK-C): This set includes all treated subjects who have at least 1 measured concentration. […]
readoutKind: AUC(0-t) (ng·h/mL)
API: value field is a number in ng·h/mL; no unit string.

Entry Cc1ccc(C(=O)Nc2ccc(CN3CCN(C)CC3)c(C(F)(F)F)c2)cc1C#Cc1nnc2ccccn12 : reported AUC(0-t) = ?
1630

====

test: Pharmacokinetics in plasma after single- and multiple-dose administration; type: in vivo, human; conditions: human, plasma, oral, 200 mg, Single-dose administration
readoutKind: Cmax (ng/mL)
API: value field is a number in ng/mL; no unit string.

Entry Cc1ccc(C(=O)Nc2ccc(CN3CCN(C)CC3)c(C(F)(F)F)c2)cc1C#Cc1nnc2ccccn12 : reported Cmax = ?
82.1

====

experiment: Pharmacokinetics in plasma after single- and multiple-dose administration; format: in vivo, human; conditions: human, plasma, oral, 50 mg, Single-dose administration, 50 mg; read-out: AUC0-t, Mean
readoutKind: AUC(0-t) (ng·h/mL)
API: value field is a number in ng·h/mL; no unit string.

Entry Cc1ccc(C(=O)Nc2ccc(CN3CCN(C)CC3)c(C(F)(F)F)c2)cc1C#Cc1nnc2ccccn12 [vamotinib] : reported AUC(0-t) = ?
252

====

assay: Pharmacokinetics in plasma after single- and multiple-dose administration; assay type: in vivo, human; conditions: human, plasma, oral, 500 mg, Single-dose administration, 500 mg; read-out: AUC0-t, Mean
readoutKind: AUC(0-t) (ng·h/mL)
API: value field is a number in ng·h/mL; no unit string.

Entry Cc1ccc(C(=O)Nc2ccc(CN3CCN(C)CC3)c(C(F)(F)F)c2)cc1C#Cc1nnc2ccccn12 : reported AUC(0-t) = ?
1500

====

experiment: Pharmacokinetics in plasma after single- and multiple-dose administration; assay type: in vivo, human; conditions: human, plasma, oral, 200 mg, Multiple-dose administration
readoutKind: Cmax (ng/mL)
API: value field is a number in ng/mL; no unit string.

Entry Cc1ccc(C(=O)Nc2ccc(CN3CCN(C)CC3)c(C(F)(F)F)c2)cc1C#Cc1nnc2ccccn12 [vamotinib] : reported Cmax = ?
109

====

test: Pharmacokinetics in plasma after single- and multiple-dose administration; assay type: in vivo, human; details: human, plasma, oral, 500 mg, Multiple-dose administration, 500 mg; read-out: AUC0-24, Mean
readoutKind: AUC(0-t)

Entry Cc1ccc(C(=O)Nc2ccc(CN3CCN(C)CC3)c(C(F)(F)F)c2)cc1C#Cc1nnc2ccccn12 : reported AUC(0-t) = ?
3490 ng·h/mL

====

assay: Pharmacokinetics in plasma after single- and multiple-dose administration; type: in vivo, human; settings: human, plasma, oral, 600 mg, Multiple-dose administration, 600 mg; read-out: AUC0-24, Mean
readoutKind: AUC(0-t) (ng·h/mL)
API: value field is a number in ng·h/mL; no unit string.

Entry Cc1ccc(C(=O)Nc2ccc(CN3CCN(C)CC3)c(C(F)(F)F)c2)cc1C#Cc1nnc2ccccn12 : reported AUC(0-t) = ?
2800

====

experiment: Pharmacokinetics in plasma after single- and multiple-dose administration; assay type: in vivo, human; conditions: human, plasma, oral, 500 mg, Multiple-dose administration
readoutKind: Tmax (h)
API: value field is a number in h; no unit string.

Entry Cc1ccc(C(=O)Nc2ccc(CN3CCN(C)CC3)c(C(F)(F)F)c2)cc1C#Cc1nnc2ccccn12 : reported Tmax = ?
4.04

====

assay: Pharmacokinetics in plasma after single- and multiple-dose administration; type: in vivo, human; conditions: human, plasma, oral, 500 mg, Multiple-dose administration
readoutKind: Cmax (ng/mL)
API: value field is a number in ng/mL; no unit string.

Entry Cc1ccc(C(=O)Nc2ccc(CN3CCN(C)CC3)c(C(F)(F)F)c2)cc1C#Cc1nnc2ccccn12 [vamotinib] : reported Cmax = ?
228

====

assay: Pharmacokinetics in plasma after single- and multiple-dose administration; assay type: in vivo, human; conditions: human, plasma, oral, 100 mg, Single-dose administration, 100 mg; read-out: AUC0-t, Mean
readoutKind: AUC(0-t) (ng·h/mL)
API: value field is a number in ng·h/mL; no unit string.

Entry Cc1ccc(C(=O)Nc2ccc(CN3CCN(C)CC3)c(C(F)(F)F)c2)cc1C#Cc1nnc2ccccn12 [vamotinib] : reported AUC(0-t) = ?
1070

====

test: Pharmacokinetics in plasma after single- and multiple-dose administration; type: in vivo, human; conditions: human, plasma, oral, 750 mg, Single-dose administration, 750 mg; read-out: AUC0-t, Mean
readoutKind: AUC(0-t) (ng·h/mL)
API: value field is a number in ng·h/mL; no unit string.

Entry Cc1ccc(C(=O)Nc2ccc(CN3CCN(C)CC3)c(C(F)(F)F)c2)cc1C#Cc1nnc2ccccn12 : reported AUC(0-t) = ?
3290

Attribution: paper PMC12141164
